Reference source for all entries: a melting point compilation (Tetko et al.; mined from patent text by program, amines drawn as free bases though some values may be those of a salt)

Items are presented alongside their recorded melting point.

Guide cases for melting point, answers given:
Entry CC(NC(=O)C(Cc1ccc(OCc2ccccc2)cc1)NC(=O)OC(C)(C)C)C(=O)O (configuration not stated) has what melting point?
160 to 162 °C

Entry Cc1cccc(CC(Nc2ccccc2)C(=O)NC(C#N)COCc2cccc(-c3nnn[nH]3)c2)c1 (configuration not stated) has what melting point?
120 to 122 °C

Others:
Entry Cc1cc(CN2CCNC2=C[N+](=O)[O-])on1 has what melting point?
168 to 170 °C

Entry CCCCc1nc(SCC)c(CO)n1Cc1ccc(-c2ccccc2C(=O)O)cc1 has what melting point?
160 °C

Entry CCCCCCCCCC[C@H](CC(=O)OC(C)(C)C)C(=O)N1C(=O)OC[C@@H]1C(C)C has what melting point?
42 to 43 °C

Entry O=C(Nc1ccc(-c2c[nH]c(=O)cn2)cc1)c1ccc([N+](=O)[O-])cc1 has what melting point?
298 to 300 °C

Entry CC(=O)OC1CCC(NC(=O)Nc2ccccc2CCc2cc(C(C)(C)C)c(O)c(C(C)(C)C)c2)CC1 (configuration not stated) has what melting point?
92 to 94 °C
